All figures here come from patent US7339065B2.

- TEST_TARGET: PPARalpha (Homo sapiens)
- Construct: uses chimeric receptors where the PPAR LBD is fused to the DBD of the yeast transcription factor GAL4
- Sequence (Q07869 239-466 limits assumed, species assumed): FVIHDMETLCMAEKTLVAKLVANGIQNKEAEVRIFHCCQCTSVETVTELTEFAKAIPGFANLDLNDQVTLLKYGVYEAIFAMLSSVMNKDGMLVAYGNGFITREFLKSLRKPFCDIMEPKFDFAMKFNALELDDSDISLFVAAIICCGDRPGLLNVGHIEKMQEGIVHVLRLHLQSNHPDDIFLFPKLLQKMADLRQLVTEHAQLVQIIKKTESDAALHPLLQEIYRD
- METHOD_DESCRIPTION: cell based transactivation assay, PPARalpha
- CONDITIONS_USED: activation, transactivation assay in vitro; read-out: EC50 for PPAR isoforms: PPARalpha
pEC50: −log10 of the molar value.
QUANTITY_KIND: pEC50

Prompt: Quick one: pEC50 for CN(CCOc1ccc(CC2SC(=O)NC2=O)cc1)C(=O)CCCCC1C2CC3CC(C2)CC1C3 (stereo not shown) ?
Response: < 5.00

* * *

- TEST_TARGET: PPARdelta (Homo sapiens)
- Construct: uses chimeric receptors where the PPAR LBD is fused to the DBD of the yeast transcription factor GAL4
- Sequence (Q03181 211-439 limits assumed): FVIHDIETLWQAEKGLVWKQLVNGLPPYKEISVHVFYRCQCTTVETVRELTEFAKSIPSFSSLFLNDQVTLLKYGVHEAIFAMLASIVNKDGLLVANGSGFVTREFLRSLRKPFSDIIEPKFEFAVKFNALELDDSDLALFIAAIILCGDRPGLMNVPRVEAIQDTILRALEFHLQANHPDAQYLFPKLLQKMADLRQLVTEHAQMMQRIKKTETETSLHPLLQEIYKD
- METHOD_DESCRIPTION: cell based transactivation assay, PPARdelta
- CONDITIONS_USED: activation, transactivation assay in vitro; read-out: EC50 for PPAR isoforms: PPARdelta
pEC50: −log10 of the molar value.
QUANTITY_KIND: pEC50

Prompt: Quick one: pEC50 for CN(CCOc1ccc(CC2SC(=O)NC2=O)cc1)C(=O)CCCCC1C2CC3CC(C2)CC1C3 (stereo not shown) ?
Response: < 5.00
